experiment: GSH arylation rate constants (NMR; UV-vis for fast warheads); format: physicochemical; details: pH 7.0; ratio to rate constant of 4q; acceleration (+) or deceleration (-)
endpoint: k change (vs ref)

Any idea what k change (vs ref) was measured for CS(=O)(=O)c1ncc(Br)c(C(=O)O)n1 [4i] ? +12 fold

Try CS(=O)(=O)c1nnnn1-c1ccccc1 [compound 7, 1-phenyl 5-methylsulfonyl tetrazole, reference compound] next. +170 fold

Try CS(=O)(=O)c1ncc(Cl)cn1 [4s] next. +8 fold

###

assay: GSH arylation rate constants (NMR; UV-vis for fast warheads); format: physicochemical; settings: relative to 4q
endpoint: k/kref
Lab note: record the figure alone, no unit after it.

Any idea what k/kref was measured for COC(=O)c1ccnc(S(C)(=O)=O)n1 ? 112

Try CS(=O)(=O)c1ncc(Cl)cn1 next. 7.6

Try COC(=O)c1cnc(S(C)(=O)=O)nc1 next. 396000

Try CS(=O)(=O)c1nccc(C(F)(F)F)n1 next. 840

Try O=S(=O)(Oc1c(F)c(F)c(F)c(F)c1F)c1ncccn1 next. 960
